System: cervical adenocarcinoma HeLa
protocol: MTT cytotoxicity assay, HeLa
Format: cell-based
condition_context: Homo sapiens, 72 h, read-out: IC50 HeLa
Task for the reader: assign each of the following compounds its reported pIC50.
Answers are plain numbers, as −log10 of the molar value.

Please review the entries below; each comes with its answer.
>>> observed("COC(=O)C1=C(C)N(C)C(=S)NC1c1ccc(Cl)cc1 (centres unmarked) [4b]")
4.09
>>> observed("COC(=O)C1=C(C)N(C)C(=S)NC1c1ccc([N+](=O)[O-])cc1 (centres unmarked) [4c]")
3.91

Please state, for each entry, its recorded pIC50.
1. COC(=O)C1=C(C)N(C)C(=S)NC1c1ccc(O)c(OC)c1 (centres unmarked) [4e]
2. COC(=O)C1=C(C)N(C)C(=S)NC1c1ccccc1 (centres unmarked) [4a]
3. COC(=O)C1=C(C)N(C)C(=S)NC1c1ccc(C(=O)O)cc1 (centres unmarked) [4d]

Result string:
1: 3.81; 2: 3.89; 3: 3.86
